assay: clinical; settings: human, in vivo, t1/2Z (terminal elimination half-life), ombrabulin, Overall (15.5-35 mg/m^2), 52 patients, cycle 1; mean (CV)
observable: half-life

Suppose we examine the compound COc1ccc(/C=C\c2cc(OC)c(OC)c(OC)c2)cc1NC(=O)[C@@H](N)CO [ombrabulin] ; what half-life value has been reported? 17 min

###

assay: clinical; details: human, in vivo, 20 mg/m2
observable: Cmax (µg/mL)
Value expressed in µg/mL; do not type the unit.

Query (compound): `COc1ccc(/C=C\c2cc(OC)c(OC)c(OC)c2)cc1NC(=O)[C@@H](N)CO` ; field requested: Cmax 0.861

###

test: clinical; conditions: human, in vivo, 35 mg/m2
observable: Tmax (min)
# output: bare number, implied unit min

What does the record list as Tmax for `COc1ccc(/C=C\c2cc(OC)c(OC)c(OC)c2)cc1NC(=O)[C@@H](N)CO` ? 30
